- target desc: T1, carcinoembryonic antigen (CEA) (human, UniProt P06731 35-685)
- T1 sequence (looked up): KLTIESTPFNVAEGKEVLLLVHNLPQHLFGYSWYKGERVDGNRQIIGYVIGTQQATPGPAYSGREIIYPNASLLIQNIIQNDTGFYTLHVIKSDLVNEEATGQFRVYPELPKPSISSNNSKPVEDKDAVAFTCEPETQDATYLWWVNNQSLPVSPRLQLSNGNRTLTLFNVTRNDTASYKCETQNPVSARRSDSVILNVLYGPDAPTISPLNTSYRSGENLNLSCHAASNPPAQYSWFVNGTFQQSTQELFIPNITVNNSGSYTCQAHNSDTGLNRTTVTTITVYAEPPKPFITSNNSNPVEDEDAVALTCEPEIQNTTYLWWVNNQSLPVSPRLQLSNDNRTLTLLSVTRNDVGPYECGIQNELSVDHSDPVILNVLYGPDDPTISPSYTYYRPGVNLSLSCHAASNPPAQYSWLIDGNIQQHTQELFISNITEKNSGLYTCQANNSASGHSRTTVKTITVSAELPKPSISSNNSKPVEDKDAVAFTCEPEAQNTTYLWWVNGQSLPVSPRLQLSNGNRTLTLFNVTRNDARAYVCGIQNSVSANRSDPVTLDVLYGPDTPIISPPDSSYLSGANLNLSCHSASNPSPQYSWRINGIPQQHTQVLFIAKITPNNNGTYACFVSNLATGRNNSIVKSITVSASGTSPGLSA
- assay protocol: competition RIA, unlabeled antibody against 125I-mCOL-1 on CEA; modified Scatchard
- Protocol: Competition RIA: The relative antigen-binding affinity of HuCOL-1, HuCOL-1AbrCDR and HuCOL-1AbrCDR antibodies with framework-substitutions was determined using a competition RIA as described previously (De Pascalis et al., J Immunol., 169:3076-3084, 2002). […] After an overnight incubation at 4° C., the plates were washed and the bound radioactivity was counted in a γ-scintillation counter. […]
measurement name: Ka

So what's the measured Ka for this one? HuCOL-1 (antibody, V domains shown, Whole humanized antibody; also called humanized COL-1; ATCC PTA-4661) VH: EVQLVQSGAEVVKPGASVKMSCKASGFNIKDYYMHWVKQAPGQGLEWIGWIDPENGDTEYAPKFQGKATMTTDTSTSTAYLELSSLRSEDTAVYYCNTRGLSTMITTRWFFDVWGAGTLVTVSS VL: DIVLTQSPASLAVSLGERATINCRASKSVSASGYSYMHWYQQKPGQPPKLLIYLASNLQSGVPARFSGSGSGTDFTLTISSVQAEDVATYYCQHSRELPTFGGGTKLEIK
2.78e+08 M⁻¹
